Tested on: Mycobacterium tuberculosis
measurement_protocol: Antitubercular activity against Mycobacterium tuberculosis BCG
Type: functional
Could you please report measured MIC for the items listed next?

Some compounds with known MIC results, for comparison:
In [3]: df
Out[3]:
                                 compound  metric     result
0                 NNC(=O)c1ccc(C(=O)NN)o1     MIC    6 µg/mL
1           CC(=O)C/C(C)=N/NC(=O)c1ccncc1     MIC  0.8 µg/mL
2                    CC(C)=NNC(=O)c1ccco1     MIC    4 µg/mL
3  NNC(=O)C(O)c1ccccc1 (stereo not drawn)     MIC   40 µg/mL
4            O=C(NNC(=O)c1ccncc1)c1ccncc1     MIC    8 µg/mL
5           NNC(=O)c1ccc([N+](=O)[O-])cc1     MIC   12 µg/mL

Give MIC for each of the items listed below.
1. O=C(N/N=C\C(O)C(O)C(O)C(O)CO)c1ccncc1 (stereo not drawn)
2. NNC(=O)CCCCCCCCCCC(=O)NN
3. NNC(=O)Cc1ccsc1
4. CC(C)CCOc1ccc(/C=N/NC(=O)c2ccncc2)cc1

[reply]
["0.15 µg/mL", "3 µg/mL", "100 µg/mL", "0.05 µg/mL"]

Give MIC for each of the items listed below.
1. CN(C)c1ccc(C(=O)NN)cc1
2. NNC(=O)Cc1cc2ccccc2[nH]1
3. NNC(=O)c1ccc(Cl)cc1

[reply]
["6 µg/mL", "60 µg/mL", "3 µg/mL"]
